- Experimental system: D(2) dopamine receptor (Homo sapiens, UniProt P14416)
- Sequence (P14416 whole entry): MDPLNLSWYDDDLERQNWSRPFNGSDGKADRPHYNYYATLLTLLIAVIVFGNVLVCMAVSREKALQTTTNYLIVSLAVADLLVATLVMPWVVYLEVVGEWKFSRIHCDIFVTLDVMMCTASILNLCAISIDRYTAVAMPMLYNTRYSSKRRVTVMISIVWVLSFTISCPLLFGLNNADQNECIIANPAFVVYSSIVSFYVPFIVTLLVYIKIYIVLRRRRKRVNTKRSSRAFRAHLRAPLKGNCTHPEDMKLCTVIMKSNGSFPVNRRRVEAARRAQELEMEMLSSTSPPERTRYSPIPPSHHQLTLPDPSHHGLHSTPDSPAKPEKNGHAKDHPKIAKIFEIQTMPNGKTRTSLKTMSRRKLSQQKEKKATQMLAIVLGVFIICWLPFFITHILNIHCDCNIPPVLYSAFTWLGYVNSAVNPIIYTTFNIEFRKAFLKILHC
- Experimental details: Binding affinity to dopamine D2 receptor
pKi: −log10 of the molar value.
Quantity kind: pKi

Returns the measured pKi for the input molecule. Input: `N#Cc1cc(F)cc(C#Cc2csc(F)n2)c1`
< 5.00

---

- Experimental system: D(1B) dopamine receptor (Homo sapiens, UniProt P21918)
- Sequence (P21918 whole entry): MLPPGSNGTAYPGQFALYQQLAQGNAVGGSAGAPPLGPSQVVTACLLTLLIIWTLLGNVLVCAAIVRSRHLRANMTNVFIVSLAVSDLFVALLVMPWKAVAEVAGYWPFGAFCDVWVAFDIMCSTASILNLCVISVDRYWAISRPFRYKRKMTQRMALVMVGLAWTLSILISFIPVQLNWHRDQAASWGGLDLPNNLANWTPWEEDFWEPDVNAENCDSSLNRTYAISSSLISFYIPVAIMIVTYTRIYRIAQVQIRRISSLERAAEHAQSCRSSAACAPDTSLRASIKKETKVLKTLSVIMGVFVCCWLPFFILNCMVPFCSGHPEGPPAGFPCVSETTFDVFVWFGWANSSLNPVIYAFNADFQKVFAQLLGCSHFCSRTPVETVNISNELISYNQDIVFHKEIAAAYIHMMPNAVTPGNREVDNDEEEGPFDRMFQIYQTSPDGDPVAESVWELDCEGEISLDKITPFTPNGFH
Quantity kind: Ki

Returns the measured Ki for the input compound. Input: `N#Cc1cc(F)cc(C#Cc2csc(F)n2)c1`
> 10 µM

---

- Experimental details: Binding affinity to sigma 2 receptor
pKi: −log10 of the molar value.
Quantity kind: pKi

Returns the measured pKi for the input molecule. Input: `N#Cc1cc(F)cc(C#Cc2csc(F)n2)c1`
< 5.00

Values from ChEMBL document CHEMBL1671821
